// reported GI50 for each item listed
- Test system: HOP-92
- PROTOCOL DESCRIPTION: NCI tumour cell line growth inhibition, 48 h
Calls of active or inactive are those of the source. No stated cut-off is given here; in the data, active = GI50 up to about 1.1 µM and inactive = higher.

Here's what some known entries look like.
1) c1ccc(Nc2nnc(Cn3ccc4ccccc43)s2)cc1; 54.7 µM (inactive)
2) CCO/C=N/NC(=O)CSc1nc2ccc(I)cc2c(=O)n1Cc1ccccc1; 83.6 µM (inactive)
3) Nc1nc(Cl)c2nnn(CC3CCC(CO)C3)c2n1 (centres undefined); > 100 µM (inactive)

Next:
query: Please report GI50 for the following molecule: `O=C(O)CCc1nn2c(nc1=O)sc1ccc3ccccc3c12`
result: > 100 µM (inactive)

###

- System: EKVX
- PROTOCOL DESCRIPTION: NCI tumour cell line growth inhibition, 48 h
Active and inactive are the calls of the source. Rule as the data show it: active = GI50 up to about 1.1 µM and inactive = higher.
RESULT TYPE: GI50

Here's what some known entries look like.
1) O=c1cccccc1NCCCCCCCCCNc1cccccc1=O; 4.56 µM (inactive)
2) CC(C)=NOC(=O)CNC(=O)C(Cc1ccccc1)NC(=O)C(C)NC(=O)OC(C)(C)C (centres undefined); > 100 µM (inactive)
3) CC1CC(c2ccc(Cl)cc2)=Nc2ccccc2S1 (centres undefined); > 100 µM (inactive)
4) COC(=O)/C(=N\Nc1nnc(C)n1N)C(C#N)c1ccc(Cl)cc1 (centres undefined); > 100 µM (inactive)
5) C/C(=N\N(c1ccccc1)c1ccccc1)c1c(O)cc(C)oc1=O; > 100 µM (inactive)

query: Please report GI50 for the following molecule: C=C1CC[C@@]2(OC1)OC1C[C@H]3[C@@H]4CC=C5C[C@@H](O)CC(OC6OCC(OC(=O)[C@@H](O)[C@@H](C)CC)C(OC(C)=O)C6OC6OC(C)C(O)C(O)C6O)[C@]5(C)[C@H]4CC[C@]3(C)C1[C@@H]2C (some centres undefined)
result: 2.34 µM (inactive)

query: Please report GI50 for the following molecule: O=C(Cc1ccccc1[N+](=O)[O-])C(CO)c1ccccc1[N+](=O)[O-] (centres undefined)
result: 70.6 µM (inactive)

query: Please report GI50 for the following molecule: `O=C(NCCCCCCNC(=O)c1cc(-c2ccccc2)nc2ccccc12)c1cc(-c2ccccc2)nc2ccccc12`
result: > 100 µM (inactive)

query: Please report GI50 for the following molecule: N#CC1CC(c2ccccc2)Nc2cc(Cl)ccc2N1 (centres undefined)
result: > 79.6 µM (inactive)

query: Please report GI50 for the following molecule: O=C(CN(Cc1ccccc1)Cc1ccccc1)N1CCc2c([nH]c3ccccc23)C1c1cccnc1 (centres undefined)
result: 7.71 µM (inactive)

query: Please report GI50 for the following molecule: `[N-]=[N+]=CC(=O)OC1CCOCC1`
result: > 100 µM (inactive)

query: Please report GI50 for the following molecule: `C/N=c1/oc2ccccc2cc1C(N)=O`
result: 30.8 µM (inactive)

query: Please report GI50 for the following molecule: `Cc1cccc(/N=N/C(=N\NC(=O)c2cc(Cl)ccc2O)c2ccc(N(CCC#N)CCC#N)cc2C)c1`
result: 34.7 µM (inactive)

query: Please report GI50 for the following molecule: `Cc1[nH]n(C2=NCCN2)c(=O)c1Cc1ccccc1`
result: > 100 µM (inactive)

###

- Test system: NCI-H522
- PROTOCOL DESCRIPTION: NCI tumour cell line growth inhibition, 48 h
Active and inactive are the calls of the source. No stated cut-off is given here; in the data, active = GI50 up to about 1.1 µM and inactive = higher.
RESULT TYPE: GI50

Here's what some known entries look like.
1. COc1cc2c(c(OC)c1OC)-c1c(cc3c(c1OC)OCO3)CC(C)C(C)(O)C2OC(=O)c1ccccc1 (stereo not drawn); 24.6 µM (inactive)
2. Cc1nn(-c2ccccc2)c2nc3c(c(C)nn3-c3ccccc3)c(-c3ccccc3Br)c12; > 100 µM (inactive)

query: Please report GI50 for the following compound: COc1ccccc1NC(=O)CC(=O)N1N=C(N2c3ccccc3Sc3ccccc32)CC1c1ccccc1 (stereo not drawn)
result: > 100 µM (inactive)

###

- Tested on: SK-MEL-28
- PROTOCOL DESCRIPTION: NCI tumour cell line growth inhibition, 48 h
The source made the active and inactive calls. No stated cut-off is given here; in the data, active = GI50 up to about 1.1 µM and inactive = higher.
// reported GI50 for each item listed

Here's what some known entries look like.
1. Cc1nc2ccc([N+](=O)[O-])cc2c(=O)n1C(=S)Nc1cccc(Cl)c1; 17.6 µM (inactive)
2. CSc1nc(SC)c2cnn(CC3CO3)c2n1 (stereo not drawn); 13.9 µM (inactive)

query: Give reported GI50 for `CSc1c(C#N)c(=O)[nH]c2[nH]nc(C)c12` (SK-MEL-28)
result: > 100 µM (inactive)

###

- Test system: OVCAR-3
- PROTOCOL DESCRIPTION: NCI tumour cell line growth inhibition, 48 h
Activity calls are given as the source filed them. No stated cut-off is given here; in the data, active = GI50 up to about 1.1 µM and inactive = higher.
Write down the outcome that applies. Available outcomes: active, inactive

Observe how each entry below is paired with its result.
1. O=C1CCCC2=C1CC1=C(CCCC1=O)N2c1cccc2ccccc12; inactive
2. O=C1c2cc3ccccc3cc2C2(c3ccc(Cl)cc3)NCCN12 (configuration not stated); inactive
3. Cc1cc(C(=O)NCCN(C)C)c2nc3ccccc3nc2c1; inactive
4. FC(F)(F)c1nc2ccc(SSc3ccc4nc(C(F)(F)F)[nH]c4c3)cc2[nH]1; inactive
5. NN1C(=O)C(CCO)S/C1=N/N=C1/SC(CCO)C(=O)N1N (configuration not stated); inactive

query: Could you please tell me the result logged for `O=C(O)Cn1ccc(=O)c2c([N+](=O)[O-])cccc21` in this assay?
result: inactive

query: Could you please tell me the result logged for CC(C)(C)C(=O)O[C@@H]1COC2C(O)COC21 (some centres not stated) in this assay?
result: inactive

query: Could you please tell me the result logged for `Cc1cc(OCc2nnc3sc(NC(=O)c4ccccc4)nn23)ccc1Cl` in this assay?
result: inactive

###

- Tested on: HT-29
- PROTOCOL DESCRIPTION: NCI tumour cell line growth inhibition, 48 h
The source made the active and inactive calls. Cut-off read from the data, not from the text of the source: active = GI50 up to about 1.1 µM and inactive = higher.
Write down the outcome that applies. Available outcomes: yes (1) (active), no (0) (inactive)

Observe how each entry below is paired with its result.
1. O=C1c2cc3ccccc3cc2C2(c3ccc(Cl)cc3)NCCN12 (stereo not given); no (0)
2. NN1C(=O)C(CCO)S/C1=N/N=C1/SC(CCO)C(=O)N1N (stereo not given); no (0)
3. COC(=O)c1ccc2c(c1)CC1(C2)Cc2cc3c(c(C(=O)OC)c2C1)CCCC3 (stereo not given); no (0)
4. COC(=O)CNC(=O)c1cc(C)cc2c1Oc1c(cc(C)cc1C(=O)NCC(=O)OC)S2; no (0)
5. CN1OC(CO)CC12C1CC3CC(C1)CC2C3 (stereo not given); no (0)

query: Could you please tell me the result logged for `Nc1nc(Cl)cc(NCC2(CO)CCC2)n1` in this assay?
result: no (0)

query: Could you please tell me the result logged for CCCCCCCCCCCC(=O)OCC1OC(n2cc(F)c(=O)[nH]c2=O)C(NC(=O)OCc2ccccc2)C(O)C1O (stereo not given) in this assay?
result: no (0)

query: Could you please tell me the result logged for `C=CCc1c(Cl)nc(Cl)nc1Cl` in this assay?
result: yes (1)

query: Could you please tell me the result logged for CN(Cc1cnc2nc(N)nc(N)c2n1)c1ccc(C(=O)NC(CCC(=O)O)C(=O)O)c2ccccc12 (stereo not given) in this assay?
result: yes (1)

query: Could you please tell me the result logged for O=C(CN(Cc1ccccc1)Cc1ccccc1)N1CCc2c([nH]c3ccccc23)C1c1cccnc1 (stereo not given) in this assay?
result: no (0)

###

- Tested on: MDA-MB-435
- PROTOCOL DESCRIPTION: NCI tumour cell line growth inhibition, 48 h
Activity calls are given as the source filed them. No stated cut-off is given here; in the data, active = GI50 up to about 1.1 µM and inactive = higher.
Write down the outcome that applies. Available outcomes: true for active, false for inactive

Observe how each entry below is paired with its result.
1. Cc1c(F)c(N)c2c(=O)cc(-c3ccc(NC(=O)C(N)CCCNC(=N)N)c(F)c3)oc2c1F (stereo not given); false
2. O=C1CCCc2cc3c(cc21)CC1(C3)Cc2cc3c(cc2C1)C(=O)CCC3; true

query: Could you please tell me the result logged for `O=C1NCCN1/N=C/c1c(Cl)n(-c2ccccc2)c2ccccc12` in this assay?
result: false

query: Could you please tell me the result logged for CC(=O)CC1CCC(=O)CCC(=O)OC(CC(C)=O)CCC(=O)CCC(=O)O1 (stereo not given) in this assay?
result: false

query: Could you please tell me the result logged for `COc1ccc(-c2nc3cc(F)ccc3s2)cc1O` in this assay?
result: false

query: Could you please tell me the result logged for `CNc1nc2c(C)ccc3nc(N(C)C)[nH]c3c-2n1` in this assay?
result: false

query: Could you please tell me the result logged for `C/N=c1/oc2ccccc2cc1C(N)=O` in this assay?
result: false

query: Could you please tell me the result logged for `COc1ccc(/N=N/c2c(O)ccc3ccccc23)cc1` in this assay?
result: false
